Each record here notes measured inhibition.
- measured_target: Proteinase-activated receptor 1 (Homo sapiens)
- assay_details: In vitro antagonist activity to inhibit human platelet aggregation (gel-filtered platelets) induced by human thrombin at a concentration of 50 uM
Numbered stars: 1 amine (or outer) side, 2 acyl side, 3 side chain; on linkers, the order of the positions; unused ones are H or OH. Bridge positions count the residues as written; N and C are the ends. Square brackets hold non-standard residues; d marks the D form. Peptide text beside a SMILES is read from it. Phe(3-F) = N[C@@H](Cc1cccc(F)c1)C(=O)O; Phe(4-F) = N[C@@H](Cc1ccc(F)cc1)C(=O)O; X1 = O=C(CCCN[*:2])[*:1]; GABA = NCCCC(=O)O; βAla = NCCC(=O)O

- compound: "CC(C)C[C@@H]1NC(=O)[C@@H](NC(=O)[C@H](Cc2ccccc2)NC(=O)[C@@H](N)CO)CCCCNC(=O)C[C@@H](C(N)=O)NC(=O)[C@H](CCCN=C(N)N)NC1=O (H-SFKLRD-NH2; lactam 3-6)"
  inhibition: "13%"
- compound: "CC(C)C[C@@H]1NC(=O)[C@@H](NC(=O)[C@H](Cc2ccccc2)NC(=O)CCCN)CCCCNC(=O)C[C@@H](C(N)=O)NC(=O)[C@H](CCCN=C(N)N)NC1=O (H-[GABA]FKLRD-NH2; lactam 3-6)"
  inhibition: "6%"
- compound: "CC(C)C[C@@H]1NC(=O)[C@@H](NC(=O)[C@H](Cc2ccccc2)NC(=O)[C@@H](N)CO)CCCCNC(=O)C[C@@H](C(N)=O)NC(=O)[C@H](Cc2ccccc2)NC1=O (H-SFKLFD-NH2; lactam 3-6)"
  inhibition: "12%"
- compound: "CC(C)C[C@@H]1NC(=O)[C@@H](NC(=O)[C@H](Cc2cccc(F)c2)NC(=O)CCN)CCCCNC(=O)C[C@@H](C(N)=O)NC(=O)[C@H](Cc2ccccc2)NC1=O (H-[βAla][Phe(3-F)]KLFD-NH2; lactam 3-6)"
  inhibition: "24%"
- compound: "CC(C)C[C@@H]1NC(=O)[C@@H](NC(=O)[C@@H](CCc2ccccc2)NC(=O)CCCN)CCCCNC(=O)C[C@@H](C(N)=O)NC(=O)[C@H](Cc2ccccc2)NC1=O"
  inhibition: "15%"
- compound: "CC(C)C[C@@H]1NC(=O)[C@@](C)(NC(=O)[C@@H](Cc2ccccc2)NC(=O)CN)CCCCNC(=O)CCCNC(=O)C[C@@H](C(N)=O)NC(=O)[C@H](CCCN=C(N)N)NC1=O"
  inhibition: "44%"
- compound: "CC(C)C[C@@H]1NC(=O)[C@@H](NC(=O)[C@H](Cc2ccccc2)NC(=O)CN)CCCCNC(=O)C[C@@H](C(N)=O)NC(=O)[C@H](Cc2ccccc2)NC1=O (H-GFKLFD-NH2; lactam 3-6)"
  inhibition: "23%"
- compound: "CC(C)C[C@@H]1NC(=O)[C@@H](NC(=O)[C@H](Cc2ccc(F)cc2)NC(=O)CN)CCCCNC(=O)C[C@@H](C(N)=O)NC(=O)[C@H](CCCN=C(N)N)NC1=O (H-G[Phe(4-F)]KLRD-NH2; lactam 3-6)"
  inhibition: "14%"
- compound: "CC(C)C[C@@H]1NC(=O)[C@H](CC(C)C)NC(=O)[C@H](Cc2ccccc2)NC(=O)[C@@H](N)CCCCNC(=O)CCCNC(=O)C[C@@H](C(N)=O)NC(=O)[C@H](CCCN=C(N)N)NC1=O (H-KFLLRD-NH2; linker 1-6 via X1)"
  inhibition: "52%"
- compound: "CC(C)C[C@@H]1NC(=O)[C@H](CC(C)C)NC(=O)[C@H](Cc2ccccc2)NC(=O)[C@@H](N)CCCCNC(=O)C[C@@H](C(N)=O)NC(=O)[C@H](CCCN=C(N)N)NC1=O (H-KFLLRD-NH2; lactam 1-6)"
  inhibition: "3%"

Source of measurements: ChEMBL document CHEMBL1132025
